- Tested on: HCT-116 cell line
- method: Inhibition of cell growth, MTT tetrazolium salt assay
- Format: cell-based
- conditionsUsed: HCT-116 cells, 0.1 μM compound
// values below are reported HCT-116 % Inhibition at 0.1 μM
experimentalReadout: HCT-116 % Inhibition at 0.1 μM (%)

Nc1nc(Nc2ccc(C(=O)N[C@H](CO)CC3CCCCC3)cc2)sc1C(=O)c1c(F)cccc1F; 25
Nc1nc(Nc2ccc(C(=O)Nc3cccc(SC(F)(F)F)c3)cc2)sc1C(=O)c1c(F)cccc1F; 25
CC1CC(C)CN(C(=O)c2ccc(Nc3nc(N)c(C(=O)c4c(F)cccc4F)s3)cc2)C1 (stereo not shown); 17
CCOc1ccccc1CNC(=O)c1ccc(Nc2nc(N)c(C(=O)c3c(F)cccc3F)s2)cc1; 1
Nc1nc(Nc2ccc(C(=O)NC3CCOC3=O)cc2)sc1C(=O)c1c(F)cccc1F (stereo not shown); 12
Nc1nc(Nc2ccc(C(=O)NCCO)cc2)sc1C(=O)c1c(F)cccc1F; 11
Nc1nc(Nc2ccc(C(=O)NCCCc3ccccc3)cc2)sc1C(=O)c1c(F)cccc1F; 6
Nc1nc(Nc2ccc(C(=O)NCc3ccc(F)cc3Cl)cc2)sc1C(=O)c1c(F)cccc1F; 6
Nc1nc(Nc2ccc(C(=O)NCc3cccc(C(F)(F)F)c3)cc2)sc1C(=O)c1c(F)cccc1F; 10
C[C@@H](CNC(=O)c1ccc(Nc2nc(N)c(C(=O)c3c(F)cccc3F)s2)cc1)c1ccccc1; 26
CCOC(=O)C1CCN(C(=O)c2ccc(Nc3nc(N)c(C(=O)c4c(F)cccc4F)s3)cc2)CC1; 15
COc1cccc(CCNC(=O)c2ccc(Nc3nc(N)c(C(=O)c4c(F)cccc4F)s3)cc2)c1OC; 18
CC(=O)N[C@@H]1CCN(C(=O)c2ccc(Nc3nc(N)c(C(=O)c4c(F)cccc4F)s3)cc2)C1; 31
Cc1ccc(NC(=O)c2ccc(Nc3nc(N)c(C(=O)c4c(F)cccc4F)s3)cc2)c(F)c1; 4
Nc1nc(Nc2ccc(C(=O)N3CCC(CO)CC3)cc2)sc1C(=O)c1c(F)cccc1F; 10
Cc1ccc([C@H](C)NC(=O)c2ccc(Nc3nc(N)c(C(=O)c4c(F)cccc4F)s3)cc2)cc1; 18
Nc1nc(Nc2ccc(C(=O)Nc3ccccc3F)cc2)sc1C(=O)c1c(F)cccc1F; 10
Nc1nc(Nc2ccc(C(=O)NCCOCCO)cc2)sc1C(=O)c1c(F)cccc1F; 22
Nc1nc(Nc2ccc(C(=O)Nc3ccc(C(F)(F)F)cc3)cc2)sc1C(=O)c1c(F)cccc1F; 25
CCCN(CCC)C(=O)c1ccc(Nc2nc(N)c(C(=O)c3c(F)cccc3F)s2)cc1; 13
CC(C)CCNC(=O)c1ccc(Nc2nc(N)c(C(=O)c3c(F)cccc3F)s2)cc1; 12
Nc1nc(Nc2ccc(C(=O)Nc3cccc(-c4nnco4)c3)cc2)sc1C(=O)c1c(F)cccc1F; 21
COc1ccc(OC)c(CCNC(=O)c2ccc(Nc3nc(N)c(C(=O)c4c(F)cccc4F)s3)cc2)c1; 17
CN(C)CCN1CCN(C(=O)c2ccc(Nc3nc(N)c(C(=O)c4c(F)cccc4F)s3)cc2)CC1; 17
Cc1cccc(CNC(=O)c2ccc(Nc3nc(N)c(C(=O)c4c(F)cccc4F)s3)cc2)c1; 18

* * *

- testedTarget: human CDK4/cyclin D3 (Homo sapiens, UniProt P11802)
- Construct: made in house; host or cells: insect cells co-infected with baculovirus vectors
- Sequence (P11802 whole entry): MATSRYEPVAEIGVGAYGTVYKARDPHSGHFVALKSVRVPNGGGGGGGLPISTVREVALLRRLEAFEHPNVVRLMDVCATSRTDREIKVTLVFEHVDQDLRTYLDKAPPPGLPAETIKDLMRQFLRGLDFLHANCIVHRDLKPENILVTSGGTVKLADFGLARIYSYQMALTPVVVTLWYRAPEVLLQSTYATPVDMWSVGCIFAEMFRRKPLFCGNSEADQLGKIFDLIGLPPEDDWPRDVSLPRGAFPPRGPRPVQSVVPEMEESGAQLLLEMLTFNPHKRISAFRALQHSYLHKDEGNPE
- Sequence (P30281 1-264 partner limits assumed): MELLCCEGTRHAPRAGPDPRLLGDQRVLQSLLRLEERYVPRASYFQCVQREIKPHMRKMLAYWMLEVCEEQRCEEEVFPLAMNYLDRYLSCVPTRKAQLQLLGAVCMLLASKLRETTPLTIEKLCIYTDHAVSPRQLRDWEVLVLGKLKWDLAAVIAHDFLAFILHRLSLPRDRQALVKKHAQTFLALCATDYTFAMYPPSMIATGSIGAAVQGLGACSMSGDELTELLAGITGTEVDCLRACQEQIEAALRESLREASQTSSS
- method: Inhibition of CDK4/cyclin D retinoblastoma kinase activity (Ki; % inhibition)
- Type: biochemical
- conditionsUsed: 0.03 μM compound
experimentalReadout: CDK4 % Inhibition at 0.03 μM

Nc1nc(Nc2ccc(C(=O)N3CCN(CCc4cccs4)CC3)cc2)sc1C(=O)c1c(F)cccc1F; 15%
CCOC(CCCNC(=O)c1ccc(Nc2nc(N)c(C(=O)c3c(F)cccc3F)s2)cc1)OCC; −2%
Nc1nc(Nc2ccc(C(=O)NCc3cccc(Cl)c3)cc2)sc1C(=O)c1c(F)cccc1F; 26%
Nc1nc(Nc2ccc(C(=O)NCCC3=CCCCC3)cc2)sc1C(=O)c1c(F)cccc1F; 11%
CCN(CCc1ccccn1)C(=O)c1ccc(Nc2nc(N)c(C(=O)c3c(F)cccc3F)s2)cc1; 11%
Nc1nc(Nc2ccc(C(=O)NCCc3ccncc3)cc2)sc1C(=O)c1c(F)cccc1F; 2%
Cc1ccccc1CNC(=O)c1ccc(Nc2nc(N)c(C(=O)c3c(F)cccc3F)s2)cc1; 27%
CN(CCC(O)c1ccccc1)C(=O)c1ccc(Nc2nc(N)c(C(=O)c3c(F)cccc3F)s2)cc1 (stereo not shown); 17%
CC(C)c1cccc(NC(=O)c2ccc(Nc3nc(N)c(C(=O)c4c(F)cccc4F)s3)cc2)c1; 4%
Cc1cccc(NC(=O)c2ccc(Nc3nc(N)c(C(=O)c4c(F)cccc4F)s3)cc2)c1; 9%
CCCCN(CCCC)C(=O)c1ccc(Nc2nc(N)c(C(=O)c3c(F)cccc3F)s2)cc1; 0%
Nc1nc(Nc2ccc(C(=O)N3CCN(Cc4ccccc4)CC3)cc2)sc1C(=O)c1c(F)cccc1F; 34%
Nc1nc(Nc2ccc(C(=O)NCC(O)CO)cc2)sc1C(=O)c1c(F)cccc1F (stereo not shown); 17%
COC(=O)c1ccc(NC(=O)c2ccc(Nc3nc(N)c(C(=O)c4c(F)cccc4F)s3)cc2)cc1OC; 12%
CC(C)CCNC(=O)c1ccc(Nc2nc(N)c(C(=O)c3c(F)cccc3F)s2)cc1; 23%
Nc1nc(Nc2ccc(C(=O)NCc3cccc(Cl)c3Cl)cc2)sc1C(=O)c1c(F)cccc1F; 36%
C[C@@H](CNC(=O)c1ccc(Nc2nc(N)c(C(=O)c3c(F)cccc3F)s2)cc1)c1ccccc1; −3%
CCN(CC)CCN1CCN(C(=O)c2ccc(Nc3nc(N)c(C(=O)c4c(F)cccc4F)s3)cc2)CC1; 13%
Nc1nc(Nc2ccc(C(=O)NCCc3ccc(Cl)c(Cl)c3)cc2)sc1C(=O)c1c(F)cccc1F; 23%
Nc1nc(Nc2ccc(C(=O)NCc3ccccc3Cl)cc2)sc1C(=O)c1c(F)cccc1F; 36%
Nc1nc(Nc2ccc(C(=O)NCc3ccc(F)c(C(F)(F)F)c3)cc2)sc1C(=O)c1c(F)cccc1F; 29%
CCC(C)CN(CCO)C(=O)c1ccc(Nc2nc(N)c(C(=O)c3c(F)cccc3F)s2)cc1 (stereo not shown); −7%
Nc1nc(Nc2ccc(C(=O)Nc3ccon3)cc2)sc1C(=O)c1c(F)cccc1F; 9%
Nc1nc(Nc2ccc(C(=O)NCCCO)cc2)sc1C(=O)c1c(F)cccc1F; 8%
CCCN(C(=O)c1ccc(Nc2nc(N)c(C(=O)c3c(F)cccc3F)s2)cc1)C(C)CC (stereo not shown); 5%

* * *

- Test system: HCT-116 cell line
- method: Inhibition of cell growth, MTT tetrazolium salt assay
- Format: cell-based
- conditionsUsed: HCT-116 cells, 0.25 μM compound
experimentalReadout: HCT-116 % Inhibition at 0.25 μM (%)

Nc1nc(Nc2ccc(C(=O)NCCc3cccnc3)cc2)sc1C(=O)c1c(F)cccc1F; 71
CCCN(CCc1ccccn1)C(=O)c1ccc(Nc2nc(N)c(C(=O)c3c(F)cccc3F)s2)cc1; 50
CC(C)c1cccc(NC(=O)c2ccc(Nc3nc(N)c(C(=O)c4c(F)cccc4F)s3)cc2)c1; 61
CN(CC(O)c1ccccc1)C(=O)c1ccc(Nc2nc(N)c(C(=O)c3c(F)cccc3F)s2)cc1 (stereo not shown); 51
Nc1nc(Nc2ccc(C(=O)NCCc3c(Cl)cccc3Cl)cc2)sc1C(=O)c1c(F)cccc1F; 51
COc1ccc(NC(=O)c2ccc(Nc3nc(N)c(C(=O)c4c(F)cccc4F)s3)cc2)cn1; 73
CCOc1ccc(NC(=O)c2ccc(Nc3nc(N)c(C(=O)c4c(F)cccc4F)s3)cc2)cc1; 57

* * *

- testedTarget: CDK2/cyclin A (Homo sapiens)
- Construct: made in house; host or cells: CDK2: insect cells (baculovirus); cyclin A: E. coli
- method: Inhibition of CDK2/cyclin A retinoblastoma kinase activity (Ki; % inhibition)
- Assay type: biochemical
- conditionsUsed: 0.03 μM compound
experimentalReadout: CDK2 % Inhibition at 0.03 μM

Nc1nc(Nc2ccc(C(=O)NCc3ccc(Cl)cc3Cl)cc2)sc1C(=O)c1c(F)cccc1F; 39%
Nc1nc(Nc2ccc(C(=O)NCCc3c(Cl)cccc3Cl)cc2)sc1C(=O)c1c(F)cccc1F; −21%
Nc1nc(Nc2ccc(C(=O)NCc3ccc(F)c(C(F)(F)F)c3)cc2)sc1C(=O)c1c(F)cccc1F; 17%
Nc1nc(Nc2ccc(C(=O)N3CCC(CO)CC3)cc2)sc1C(=O)c1c(F)cccc1F; −14%
CN(CCC#N)C(=O)c1ccc(Nc2nc(N)c(C(=O)c3c(F)cccc3F)s2)cc1; 0%
CC(=O)N[C@@H]1CCN(C(=O)c2ccc(Nc3nc(N)c(C(=O)c4c(F)cccc4F)s3)cc2)C1; −7%
CCC(C)CN(CCO)C(=O)c1ccc(Nc2nc(N)c(C(=O)c3c(F)cccc3F)s2)cc1 (stereo not shown); −11%
Cc1cc(NC(=O)c2ccc(Nc3nc(N)c(C(=O)c4c(F)cccc4F)s3)cc2)ccc1F; −1%
COc1ccc(NC(=O)c2ccc(Nc3nc(N)c(C(=O)c4c(F)cccc4F)s3)cc2)cn1; 18%
CCOc1ccc(NC(=O)c2ccc(Nc3nc(N)c(C(=O)c4c(F)cccc4F)s3)cc2)cc1; 11%
Nc1nc(Nc2ccc(C(=O)Nc3cccc(C(F)(F)F)c3)cc2)sc1C(=O)c1c(F)cccc1F; 11%
CCOC(=O)N1CCC(NC(=O)c2ccc(Nc3nc(N)c(C(=O)c4c(F)cccc4F)s3)cc2)CC1; 15%
CCN(CC)C(=O)c1ccc(Nc2nc(N)c(C(=O)c3c(F)cccc3F)s2)cc1; 9%
Cc1cccc(N2CCN(C(=O)c3ccc(Nc4nc(N)c(C(=O)c5c(F)cccc5F)s4)cc3)CC2C)c1 (stereo not shown); −23%
Nc1nc(Nc2ccc(C(=O)Nc3ccc(C(F)(F)F)cc3)cc2)sc1C(=O)c1c(F)cccc1F; 3%
CCCN(C(=O)c1ccc(Nc2nc(N)c(C(=O)c3c(F)cccc3F)s2)cc1)C(C)CC (stereo not shown); −16%
CN(CCC(O)c1ccccc1)C(=O)c1ccc(Nc2nc(N)c(C(=O)c3c(F)cccc3F)s2)cc1 (stereo not shown); 22%
CCCCOc1ccc(NC(=O)c2ccc(Nc3nc(N)c(C(=O)c4c(F)cccc4F)s3)cc2)cc1; 1%
CCCCC(CO)NC(=O)c1ccc(Nc2nc(N)c(C(=O)c3c(F)cccc3F)s2)cc1 (stereo not shown); 10%
Cc1cc(NC(=O)c2ccc(Nc3nc(N)c(C(=O)c4c(F)cccc4F)s3)cc2)no1; 8%
Nc1nc(Nc2ccc(C(=O)NCc3ccc(Cl)cc3)cc2)sc1C(=O)c1c(F)cccc1F; 25%
Cc1ccc(NC(=O)c2ccc(Nc3nc(N)c(C(=O)c4c(F)cccc4F)s3)cc2)nc1; 4%
